System: lung normal (MRC-5) cell line
Experiment: MTT in vitro antiproliferation assay, MRC-5
Format: cell-based
Details: Homo sapiens, MRC5, 24 h, read-out: IC50 ± SD MRC-5
The reader will find reported IC50 values listed item by item below.
Your answer is read as µM, so omit the unit and give the number.

>  <compound>
CCCSc1ccc2[nH]c(N[C@H]3O[C@@H](CO)[C@H](O)[C@@H](O)[C@@H]3O)nc2c1 [Al–G, albendazole amine glucose conjugate]

>  <tested-system>
lung normal (MRC-5) cell line

>  <unit-of-measurement>
µM

>  <IC50>
895

$$$$

Value of measured IC50 for the entry COC(=O)Nc1nc2ccc(C(=O)c3cccs3)cc2[nH]1 [NOZ, nocodazole] : 12

The measured IC50 associated with CCCSc1ccc2nc(NC(=O)OC)[nH]c2c1 [Al, albendazole] reads 96.1
